// data source = ChEMBL document CHEMBL3611989

Test system: Staphylococcus aureus
Experiment: Antimicrobial activity against methicillin-resistant Staphylococcus aureus USA300 assessed as reduction in bacterial growth incubated for 18 to 20 hrs at 37 degC by broth microdilution method
Format: functional
readout-type: MIC (µM)
Note: unit µM is implicit; provide only the numeric part.

// solved cases for MIC follow
{"given-smiles": "[C-]#[N+]c1ccccc1/C=C/c1cccc(OC)c1", "experimental-system": "Staphylococcus aureus", "MIC, µM": 16}
{"given-smiles": "[C-]#[N+]c1ccccc1/C=C/c1ccccc1", "experimental-system": "Staphylococcus aureus", "MIC, µM": 4}
{"given-smiles": "[C-]#[N+]c1ccccc1/C=C(\\CCC)c1ccccc1", "experimental-system": "Staphylococcus aureus", "MIC, µM": 32}
{"given-smiles": "[C-]#[N+]c1ccccc1/C=C(\\CC)c1ccccc1", "experimental-system": "Staphylococcus aureus", "MIC, µM": 32}
{"given-smiles": "[C-]#[N+]c1ccc(/C=C/c2ccccn2)cc1", "experimental-system": "Staphylococcus aureus", "MIC, µM": 32}
{"given-smiles": "[C-]#[N+]c1ccccc1/C=C/c1ccccc1C(F)(F)F", "experimental-system": "Staphylococcus aureus", "MIC, µM": 32}

Data point: [C-]#[N+]c1cccc(/C=C/c2cccnc2)c1 ; MIC = 32

Data point: [C-]#[N+]c1ccccc1/C=C/c1ccccc1OC ; MIC = 8

Data point: [C-]#[N+]c1ccccc1/C=C/c1ccncc1 ; MIC = 32

###

Test system: Staphylococcus aureus
Assay: Antimicrobial activity against methicillin-resistant Staphylococcus aureus USA500 assessed as reduction in bacterial growth incubated for 18 to 20 hrs at 37 degC by broth microdilution method
Type: functional
Overview of reported MIC across a group of compounds:
Note: unit µM is implicit; provide only the numeric part.

// solved cases for MIC follow
{"given-smiles": "[C-]#[N+]c1cccc(/C=C/c2ccncc2)c1", "MIC [µM]": 64}
{"given-smiles": "[C-]#[N+]c1ccccc1/C=C/c1ccccc1F", "MIC [µM]": 16}
{"given-smiles": "[C-]#[N+]c1cccc(/C=C/c2ccccn2)c1", "MIC [µM]": 64}
{"given-smiles": "[C-]#[N+]c1ccc(/C=C/c2cccnc2)cc1", "MIC [µM]": 32}
{"given-smiles": "[C-]#[N+]c1ccccc1/C=C(\\CC)c1ccc(F)cc1", "MIC [µM]": 16}

// next item, MIC requested
# MIC measured on Staphylococcus aureus for item [C-]#[N+]c1ccccc1-c1ccc2ccccc2c1 = 32

###

Overview of reported remaining at 1 h across a group of compounds:
Assay: Metabolic stability in human liver microsomes assessed as compound remaining incubated for 60 mins in presence of NADPH
Type: ADME
Conditions: read-out: Stability
Note: unit % is implicit; provide only the numeric part.

{"compound": "[C-]#[N+]c1ccccc1/C=C/c1ccccc1", "units": "%", "remaining at 1 h": 24}

// next item, remaining at 1 h requested
Data point: CC(=O)CC(c1ccccc1)c1c(O)c2ccccc2oc1=O (configuration not stated) [WARFARIN] ; remaining at 1 h = 93

###

System: Staphylococcus aureus
Test: Antimicrobial activity against methicillin-resistant Staphylococcus aureus USA300 assessed as reduction in bacterial growth incubated for 18 to 20 hrs at 37 degC by broth microdilution method
Assay type: functional
Overview of reported MIC across a group of compounds:

{"given-smiles": "[C-]#[N+]c1ccccc1/C=C(\\CCCC)c1ccccc1", "measured-result": "> 128 µM"}
{"given-smiles": "[C-]#[N+]c1cccc(/C=C/c2ccccc2)c1", "measured-result": "16 µM"}
{"given-smiles": "[C-]#[N+]c1ccccc1/C=C(\\C)c1ccccc1", "measured-result": "> 128 µM"}

Data point: [C-]#[N+]c1ccccc1/C=C/c1cccnc1 ; MIC = 16 µM

Data point: [C-]#[N+]c1ccccc1/C=C(\CC)c1ccc(F)cc1 ; MIC = 32 µM

Data point: [C-]#[N+]c1ccccc1-c1ccc2ccccc2c1 ; MIC = 64 µM
